System: Plasmodium falciparum
Test: NOVARTIS: Inhibition of Plasmodium falciparum 3D7 (drug-susceptible) proliferation in erythrocyte-based infection assay
Type: functional, organism-based
Settings: Plasmodium falciparum, 3D7
MEASURED ENDPOINT: EC50 (nM)
Expressed in nM, but write only the number.

QUERY: Which EC50 value is on record for CCOC(=O)c1ccc(N2C(=O)c3[nH]nc(C)c3C2c2ccccc2OC)cc1 (stereo not given) ?
RESULT: 610

QUERY: Which EC50 value is on record for Oc1ccc(-c2ccc3c(c2)OCO3)cc1CNCC1CC2C=CC1C21CC1 (stereo not given) ?
RESULT: 1110

QUERY: Which EC50 value is on record for O=C(NC(=C(Cl)Cl)[P+](c1ccccc1)(c1ccccc1)c1ccccc1)c1ccc(F)cc1 ?
RESULT: 954

QUERY: Which EC50 value is on record for COc1ccc(NC2=C(c3ccc(OC)cc3)C(=O)c3ccccc32)cc1 ?
RESULT: 437

QUERY: Which EC50 value is on record for Cc1ccc(Nc2nc3c(N)nnc(N)c3nc2Nc2ccc(C)cc2)cc1 ?
RESULT: 6120

QUERY: Which EC50 value is on record for COc1ccc(C(=O)N2C(C(=O)Nc3ccccc3F)CSC2c2ccc(C(C)(C)C)cc2)cc1 (stereo not given) ?
RESULT: 940

====

Test system: Plasmodium falciparum
Assay: NOVARTIS: Inhibition of Plasmodium falciparum W2 (drug-resistant) proliferation in erythrocyte-based infection assay
Assay type: functional, organism-based
Details: Plasmodium falciparum, W2; read-out: EC50
MEASURED ENDPOINT: pEC50
Quick note: pEC50 means taking -log10 of the concentration in moles per liter.

QUERY: Which pEC50 value is on record for Cc1ccn2c(NC(C)(C)CC(C)(C)C)c(-c3ccccc3OC(=O)c3ccco3)nc2c1 ?
RESULT: 7.47

QUERY: Which pEC50 value is on record for COc1ccc2nc(C)cc(NN=Cc3cccs3)c2c1 ?
RESULT: 6.87

QUERY: Which pEC50 value is on record for Oc1ccc(-c2cncnc2)cc1CNC1CCN(Cc2ccccc2)CC1 ?
RESULT: 6.17

QUERY: Which pEC50 value is on record for CCCCCN(CC(=O)Nc1cc(C(C)(C)C)nn1-c1ccc(Cl)c(Cl)c1)C(=O)c1ccc2c(c1)OCO2 ?
RESULT: 6.02

QUERY: Which pEC50 value is on record for COc1ccc(Nc2nc(NN=Cc3cc([N+](=O)[O-])ccc3OC)nc(Nc3ccc([N+](=O)[O-])cc3)n2)cc1 ?
RESULT: 6.12

QUERY: Which pEC50 value is on record for Cc1nc2c(=O)n(C)c(=O)nc-2n(C)n1 ?
RESULT: 6.40

QUERY: Which pEC50 value is on record for COc1ccc(C2=Nc3cc(C(=O)NCCN4CCOCC4)ccc3CN2C(C)C)cc1 ?
RESULT: 5.82

QUERY: Which pEC50 value is on record for O=C1c2ccccc2-c2nc3ccc(C(F)(F)F)cc3nc21 ?
RESULT: 5.90

QUERY: Which pEC50 value is on record for Cc1cccc[n+]1CCCCCCCCCC[n+]1ccccc1C ?
RESULT: 7.09

QUERY: Which pEC50 value is on record for O=C(COc1ccccc1)NC(c1ccc([N+](=O)[O-])cc1)c1cc(Cl)c2cccnc2c1O (stereo unspecified) ?
RESULT: 6.36

QUERY: Which pEC50 value is on record for Cc1cc(C)cc(Nc2cc(C)nc3ncnn23)c1 ?
RESULT: 6.05

QUERY: Which pEC50 value is on record for C=C[C@H]1CN2CC[C@H]1C[C@H]2[C@H](OC(C)=O)c1ccnc2ccccc12 ?
RESULT: 6.23

QUERY: Which pEC50 value is on record for COc1ccc(Br)cc1CNC(=O)CCCN1C(=O)COc2ccc(C)cc21 ?
RESULT: 6.20

QUERY: Which pEC50 value is on record for COc1ccc(NC(=O)NCc2cccn2Cc2ccc(F)cc2)cc1OC ?
RESULT: 6.18

QUERY: Which pEC50 value is on record for Cc1ccc(Cn2c(N3CCC(C(=O)NCc4ccc(F)cc4)CC3)nc3ccccc32)cc1 ?
RESULT: 5.50

QUERY: Which pEC50 value is on record for CCN1CCC(NC2CCCc3c2[nH]c2ccc([N+](=O)[O-])cc32)CC1 (stereo unspecified) ?
RESULT: 6.47

QUERY: Which pEC50 value is on record for CCOC(=O)C(=O)N1c2ccccc2-c2c(ssc2=S)C1(C)C ?
RESULT: 7.13

QUERY: Which pEC50 value is on record for COc1ccccc1C1CC(=O)N2CN(Cc3ccccc3)CSC2=C1C#N (stereo unspecified) ?
RESULT: 6.47

QUERY: Which pEC50 value is on record for CCCCC(=O)NC(c1ccccc1)c1ccc2cccnc2c1O (stereo unspecified) ?
RESULT: 6.62

QUERY: Which pEC50 value is on record for COc1cc(NCCCC(C)N)c2ncccc2c1 (stereo unspecified) ?
RESULT: 6.38

QUERY: Which pEC50 value is on record for CCOc1cccc2c1N(C(=O)c1cccc([N+](=O)[O-])c1)C(C)(C)C(=S)C2=C1SC(C(=O)OC)=C(C(=O)OC)S1 ?
RESULT: 6.35

QUERY: Which pEC50 value is on record for N#Cc1ccc(N2CCCN(C(=S)NC3CCCC3)CC2)nc1 ?
RESULT: 6.48

QUERY: Which pEC50 value is on record for COc1ccc(CCN2C(=O)c3ccc(Oc4ccc(NC(=O)c5oc(=O)c6ccccc6c5-c5ccccc5)cc4)cc3C2=O)cc1OC ?
RESULT: 5.32

QUERY: Which pEC50 value is on record for Cc1nc(CC(=O)N2CCCC(CNC(=O)C3(c4ccc(Cl)cc4)CC3)C2)cs1 (stereo unspecified) ?
RESULT: 5.30

QUERY: Which pEC50 value is on record for CCOc1ccccc1NC(=O)Cn1c(=O)n(Cc2ccccc2)c(=O)c2c(C)c(C(=O)N(C)C)sc21 ?
RESULT: 6.42

QUERY: Which pEC50 value is on record for N#Cc1ccccc1N1CCCCC1 ?
RESULT: 5.75

QUERY: Which pEC50 value is on record for COc1ccc(OC)c(-c2ccc(O)c(CNCCc3ccccc3F)c2)c1 ?
RESULT: 6.10

QUERY: Which pEC50 value is on record for COc1cccc(CNC(=O)Cn2ncc3c(=O)oc4ccc(C)cc4c32)c1 ?
RESULT: 5.75

QUERY: Which pEC50 value is on record for CN(C)c1cc[n+](Cc2c(Cl)cccc2Cl)cc1 ?
RESULT: 6.22

QUERY: Which pEC50 value is on record for Fc1ccc(Nc2nc(NCc3ccco3)c3ccccc3n2)cc1 ?
RESULT: 7.00

QUERY: Which pEC50 value is on record for CCC1CCCCN1CCCNC(=O)c1cn(CC)c(=O)c2cc(OC)c(OC)cc12 (stereo unspecified) ?
RESULT: 6.30

QUERY: Which pEC50 value is on record for COc1cc(-c2nc(-c3ccccc3)c(-c3cccc(C(F)(F)F)c3)[nH]2)cc(OC)c1O ?
RESULT: 6.04

QUERY: Which pEC50 value is on record for CC(C)(C)C1=NN(CC(=O)Nc2ccc3c(c2)OCO3)C(=O)c2cc3ccccc3n2C1 ?
RESULT: 5.50

QUERY: Which pEC50 value is on record for COc1cccc2cc(C(=O)Nc3cccc(C(F)(F)F)c3)c(=O)oc12 ?
RESULT: 7.19

QUERY: Which pEC50 value is on record for N=c1c2ccccc2nnn1-c1ccc(C(F)(F)F)cc1 ?
RESULT: 6.24

QUERY: Which pEC50 value is on record for Cn1c(=O)[nH]c(=O)c2c1nc(N1CCCCCC1)n2CC(O)COc1ccc([N+](=O)[O-])cc1 (stereo unspecified) ?
RESULT: 5.73
